Measured IC50 by item
Target: purified HLA-DR DRB1*1101 (human)
Assay: competition with 125I-labelled reference peptide, purified HLA
Kindly provide the numeric value in µM only, without the unit symbol.

binder	parameter	measValue
LIQLIVSGRDEQSIA (modifications not checked) [Flu.PB2.384]	IC50	2.01

Shift focus to the following entry.
State, in one line, measured IC50 of ESAVLRGFLILGKED (modifications not checked) [Flu.PB2.690] 1.03
